- assayDetails: NCI Yeast Anticancer Drug Screen. Data for the mec2-1 strain (AID 157)
- conditionNotes: S. cerevisiae mec2-1 strain, at 50.0 µM, stronger effect = higher value
The panel holds about 79,000 compounds, 15% with a hit somewhere; the sample as a whole holds those more often.
Task for the reader: assign each of the following compounds its reported growth inhibition.
Give bare numbers, in %.

Sample answers from the record:
# compound, endpointLabel, endpointValue
measured = [
    ("CN1C(=O)n2c(nc3ccccc32)C(N2CCOCC2)(N2CCOCC2)C1=O", "growth inhibition", 56.4),
    ("CC(C)(C)NC(=O)Oc1ccc2ccccc2c1", "growth inhibition", -14.6),
    ("O=NN(CCCl)C(=O)NC1CCC(CC2CCC(NC(=O)N(CCCl)N=O)CC2)CC1 (stereo not given)", "growth inhibition", 5.6),
]

Would you be so kind as to report growth inhibition for each listed record?
1. COc1c(OC(C)=O)c(OC(C)=O)cc2c1-c1ccc(OC)c(=O)cc1C(NC(C)=O)CC2 (stereo not given)
2. Cc1cc(NCCN(C(C)C)C(C)C)nc(Nc2nc3ccc(Cl)cc3[nH]2)n1
3. O=C(Nc1cccc(Cl)c1)OCc1ccccn1
4. CC(=O)CC(O)(C(F)(F)Cl)C(F)(Cl)Cl (stereo not given)
5. CC(C)(C)C1=CC(=C(c2ccc(-c3c4nc(c(-c5ccc(C(=C6C=C(C(C)(C)C)C(=O)C(C(C)(C)C)=C6)c6cc(C(C)(C)C)c(O)c(C(C)(C)C)c6)cc5)c5ccc([nH]5)c(-c5ccc(C(=C6C=C(C(C)(C)C)C(=O)C(C(C)(C)C)=C6)c6cc(C(C)(C)C)c(O)c(C(C)(C)C)c6)cc5)c5nc(c(-c6ccc(C(=C7C=C(C(C)(C)C)C(=O)C(C(C)(C)C)=C7)c7cc(C(C)(C)C)c(O)c(C(C)(C)C)c7)cc6)c6ccc3[nH]6)C=C5)C=C4)cc2)c2cc(C(C)(C)C)c(O)c(C(C)(C)C)c2)C=C(C(C)(C)C)C1=O
6. O=C(CCC(=O)Nc1cccc(Cl)c1)CC(=O)c1ccc(F)cc1
7. CNC(=O)CNC(=O)C(Cc1ccc(NC(=O)CCCCC(C)=O)cc1)NC(=O)C(CCC(=O)OCc1ccccc1)NC(=O)OC(C)(C)C (stereo not given)

Result:
-1.35
-16.5
8.15
-47.7
2.6
-1.8
-23.6
